# target-entity: recombinant soluble homotrimeric HA, A/duck/Yangzhou/02/05 H8N4 (Influenza A virus A/duck/Yangzhou/02/2005(H8N4))
# protocol: microarray, transfection SN IgG, trimeric HA
# conditions: remark: other sources report otherwise
Mark T only when Trimeric HA Binding: RLU stays strictly below 20000 RLU. Values equal to the cut-off are F.

{"binder": "TCN-554 (5277_M05) (antibody, V domains shown) VH: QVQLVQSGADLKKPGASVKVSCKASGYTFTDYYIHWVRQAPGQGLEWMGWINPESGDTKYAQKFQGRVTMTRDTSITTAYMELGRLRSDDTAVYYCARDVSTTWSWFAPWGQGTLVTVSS VL: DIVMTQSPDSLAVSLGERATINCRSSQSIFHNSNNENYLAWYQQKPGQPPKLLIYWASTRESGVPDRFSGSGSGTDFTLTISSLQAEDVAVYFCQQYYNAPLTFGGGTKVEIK", "category-label": "T"}
{"binder": "TCN-552 (5249_I23) (antibody, V domains shown) VH: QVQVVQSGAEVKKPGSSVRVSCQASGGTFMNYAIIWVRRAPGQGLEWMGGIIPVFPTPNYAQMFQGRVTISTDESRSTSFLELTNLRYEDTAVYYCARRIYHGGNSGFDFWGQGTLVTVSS VL: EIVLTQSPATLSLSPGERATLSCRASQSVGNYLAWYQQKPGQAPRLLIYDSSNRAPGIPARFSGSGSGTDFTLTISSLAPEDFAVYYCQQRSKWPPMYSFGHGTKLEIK", "category-label": "T"}
{"binder": "TCN-550 (5096_F06) (antibody, V domains shown) VH: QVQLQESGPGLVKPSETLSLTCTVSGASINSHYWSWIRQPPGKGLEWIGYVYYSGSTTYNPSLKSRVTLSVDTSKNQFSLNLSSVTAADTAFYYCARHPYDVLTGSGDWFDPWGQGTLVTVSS VL: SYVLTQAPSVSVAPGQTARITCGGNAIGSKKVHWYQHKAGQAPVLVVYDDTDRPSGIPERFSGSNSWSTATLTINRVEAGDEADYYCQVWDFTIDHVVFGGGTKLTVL", "category-label": "T"}
{"binder": "TCN-555 (5246_L16) (antibody, V domains shown) VH: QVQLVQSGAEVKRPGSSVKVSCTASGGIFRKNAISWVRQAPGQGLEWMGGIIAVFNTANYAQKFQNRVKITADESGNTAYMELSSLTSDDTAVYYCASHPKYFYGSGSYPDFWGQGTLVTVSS VL: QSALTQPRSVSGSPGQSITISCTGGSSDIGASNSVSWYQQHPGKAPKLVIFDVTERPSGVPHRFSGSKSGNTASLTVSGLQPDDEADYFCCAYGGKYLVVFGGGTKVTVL", "category-label": "T"}
{"binder": "TCN-504 (3251_K17) (antibody, V domains shown) VH: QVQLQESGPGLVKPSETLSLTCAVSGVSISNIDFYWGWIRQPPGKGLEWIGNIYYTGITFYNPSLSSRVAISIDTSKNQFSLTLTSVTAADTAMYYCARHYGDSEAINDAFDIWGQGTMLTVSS VL: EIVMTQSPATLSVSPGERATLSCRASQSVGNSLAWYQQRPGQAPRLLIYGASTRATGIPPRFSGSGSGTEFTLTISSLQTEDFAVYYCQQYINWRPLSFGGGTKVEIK", "category-label": "F"}
